Measured values drawn from ChEMBL document CHEMBL3885881 for this set.

I'd be grateful if you could share measured MONOCYTE for these entries.
Species: Rattus norvegicus
PROCEDURE_DETAILS: DrugMatrix - Regimen: Daily Repeat
Assay type: toxicity, organism-based, Sprague-Dawley
Set-up: regimen Daily Repeat, gender Male, age 6-8 weeks
ASSAY_SETUP: in vivo, po, 0 mg/kg, 120 h, tissue Blood, route oral GAVAGE, dose level Control, time 5 day, vehicle .5 % CMC
Number in %, nothing else.

If you can, please state the reported MONOCYTE value of CC(C)(C)NC(=O)[C@@H]1C[C@@H]2CCCC[C@@H]2CN1C[C@@H](O)[C@H](Cc1ccccc1)NC(=O)[C@H](CC(N)=O)NC(=O)c1ccc2ccccc2n1 .
0.17

Do the same for CCCCc1oc2ccccc2c1C(=O)c1cc(I)c(OCCN(CC)CC)c(I)c1 please
1.67

Do the same for ClC(Br)Br please
1.83

Do the same for CN1CCN(CCCN2c3ccccc3Sc3ccc(Cl)cc32)CC1 please
0.33

Do the same for Cc1ccc(/N=C/N(C)/C=N/c2ccc(C)cc2C)c(C)c1 please
0.17

Do the same for CCCN1C[C@H](CSC)C[C@@H]2c3cccc4[nH]cc(c34)C[C@H]21 [PERGOLIDE] please
2

Do the same for N=C(N)NCCN1CCCCCCC1 please
1.5

Do the same for C1CCC(C(CC2CCCCN2)C2CCCCC2)CC1 (stereo not given) please
2.2

Do the same for O=C(CCCN1CC=C(n2c(=O)[nH]c3ccccc32)CC1)c1ccc(F)cc1 please
2.37

Do the same for COc1nc(C)nc(Cl)c1N=C1NCCN1 please
0.67

----------
Species on record: Rattus norvegicus
PROCEDURE_DETAILS: DrugMatrix - Regimen: Daily Repeat
Assay type: toxicity, organism-based, Sprague-Dawley
Parameters: regimen Daily Repeat, gender Male, age 6-8 weeks
ASSAY_SETUP: in vivo, po, 0 mg/kg, 72 h, tissue Plasma, route oral GAVAGE, dose level Control, time 3 day, vehicle 100 % WATER
Mark met for reported CREATINE PHOSPHOKINASE of 400 u/L or greater; mark not met for anything smaller.

Please check the record C[C@](N)(Cc1ccc(O)c(O)c1)C(=O)O [METHYLDOPA] and state if its CREATINE PHOSPHOKINASE is at or above 400 u/L.
met

Do the same for Clc1cccc(Cl)c1N=C1NCCN1 [CLONIDINE] please
met

Do the same for N[C@@H](Cc1ccc(O)c(O)c1)C(=O)O [LEVODOPA] please
not met

Do the same for Cn1cc[nH]c1=S [METHIMAZOLE] please
met

Do the same for CN(C)CCCN1c2ccccc2Sc2ccc(Cl)cc21 [CHLORPROMAZINE] please
not met

----------
Organism: Rattus norvegicus
PROCEDURE_DETAILS: DrugMatrix - Regimen: Daily Repeat
Assay type: toxicity, organism-based, Sprague-Dawley
Parameters: regimen Daily Repeat, gender Male, age 6-8 weeks
ASSAY_SETUP: in vivo, po, 0 mg/kg, 72 h, tissue Blood, route oral GAVAGE, dose level Control, time 3 day, vehicle .5 % CMC
REPORTED_ENDPOINT: MEAN CORPUSCULAR HEMOGLOBIN (pg)
Number in pg, nothing else.

If you can, please state the reported MEAN CORPUSCULAR HEMOGLOBIN value of CCCN1C[C@H](CSC)C[C@@H]2c3cccc4[nH]cc(c34)C[C@H]21 [PERGOLIDE] .
23.73

Do the same for OCCN(CCO)c1nc(N2CCCCC2)c2nc(N(CCO)CCO)nc(N3CCCCC3)c2n1 [DIPYRIDAMOLE] please
23.48

Do the same for ClC(Br)Br [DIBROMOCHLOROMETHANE] please
22.93
